Test system: AA1029
Assay: qHTS profiling for inhibitors of Plasmodium falciparum proliferation (AID 504749); note: nearly all actives have a fitted effect of over 60% in size
Details: P. falciparum in erythrocytes, SYBR Green DNA, 72 h; series mostly up to 28.7 µM
Results filed as inconclusive are left out. Calls of active or inactive are those of the source. Calls come from the whole dose curve; as a rule, active = well fitted inhibition curve with a large enough effect; inconclusive = small, poorly fitted or top-dose-only effect; inactive = flat fitted curve, though single readings scatter.
Outcome codes: Y (active), N (inactive)

compound: NNc1ccccc1
group label: N
--
compound: CCCCCCC(=O)CCCCCC/C=C/C[C@@H](O)[C@H](O)[C@@](N)(CO)C(=O)O
group label: N
--
compound: CN1C(=O)C(O)N=C(c2ccccc2)c2cc(Cl)ccc21 (configuration not stated)
group label: N
--
compound: NCCc1ccc(O)cc1
group label: N
--
compound: O=c1oc2ccccc2c(O)c1Cc1c(O)c2ccccc2oc1=O
group label: N
--
compound: CCCCCCCCCC(=O)O[C@H]1CC[C@H]2[C@@H]3CCC4=CC(=O)CC[C@@H]4[C@H]3CC[C@]12C
group label: N
--
compound: O=C(N/N=C/c1ccc([N+](=O)[O-])o1)c1cc([N+](=O)[O-])cc([N+](=O)[O-])c1O
group label: Y
--
compound: Nc1nc(N)nc(NC2CC2)n1
group label: N
--
compound: c1ccc2c(c1)sc1ccccc12
group label: N
--
compound: C[C@]12CC[C@@H]3c4ccc(OC(=O)N(CCCl)CCCl)cc4CC[C@H]3[C@@H]1CC[C@@H]2O
group label: N
--
compound: COC(=O)C(c1ccccc1)C1CCCCN1 (configuration not stated)
group label: N
--
compound: CN1C(=O)CCS(=O)(=O)C1c1ccc(Cl)cc1 (configuration not stated)
group label: N

* * *

Test: S16 Schwann cell PMP22 intronic element beta-lactamase assay (AID 624044); note: nearly all actives have a fitted effect of over 15% in size
Conditions: S16 rat Schwann cells, PMP22 element beta-lactamase FRET, 24 h; series mostly up to 38.3 µM
Records with an inconclusive call do not appear. The source made the active and inactive calls. Calls come from the whole dose curve.

compound: Cc1nnc2n1-c1ccc(Cl)cc1C(c1ccccc1Cl)=NC2
outcome: inactive

compound: COc1ccc2c(c1)C13CCCC[C@@H]1C(C2)N(C)CC3 (stereo not given in full)
outcome: inactive

compound: COc1cccc([C@@]2(O)CCCC[C@@H]2CN(C)C)c1
outcome: inactive

compound: COC(=O)C(c1ccccc1)C1CCCCN1 (stereo not given)
outcome: inactive

compound: O=C1Nc2ccc(Cl)cc2C(c2ccccc2Cl)=NC1O (stereo not given)
outcome: inactive

compound: O=C(Nc1ccc(Br)cc1)c1cc(Br)cc(Br)c1O
outcome: inactive

compound: Clc1cccc(SC2CCNCC2)n1
outcome: inactive

compound: CN1C(=O)C(O)N=C(c2ccccc2)c2cc(Cl)ccc21 (stereo not given)
outcome: inactive

compound: COP(=S)(OC)SCN1C(=O)c2ccccc2C1=O
outcome: inactive

compound: COP(=S)(OC)Oc1ccc(S(=O)(=O)N(C)C)cc1
outcome: inactive

compound: COc1ccc2c(c1OC)C(=O)O[C@H]2[C@@H]1c2cc3c(cc2CCN1C)OCO3
outcome: inactive

compound: CCCC(C)(COC(N)=O)COC(N)=O
outcome: inactive

compound: Clc1ccc(C(c2ccc(Cl)cc2)C(Cl)(Cl)Cl)cc1
outcome: inactive

compound: O=C1CN=C(c2ccccc2)c2cc([N+](=O)[O-])ccc2N1
outcome: inactive

compound: CCCCCCCCCC(=O)O[C@H]1CC[C@H]2[C@@H]3CCC4=CC(=O)CC[C@@H]4[C@H]3CC[C@]12C
outcome: inactive
